Listing: IC50 of selected compounds
Experimental Target: Der p 1 (Dermatophagoides pteronyssinus (European house dust mite), UniProt P08176)
Sequence (P08176 99-320): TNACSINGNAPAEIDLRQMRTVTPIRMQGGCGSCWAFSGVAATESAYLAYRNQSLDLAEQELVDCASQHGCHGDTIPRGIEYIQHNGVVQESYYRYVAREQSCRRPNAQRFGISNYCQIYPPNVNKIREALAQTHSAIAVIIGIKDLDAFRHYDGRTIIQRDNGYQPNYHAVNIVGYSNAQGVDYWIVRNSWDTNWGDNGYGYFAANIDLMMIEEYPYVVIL
Procedure Summary: Der p 1 enzyme activity assay (FRET fluorogenic substrate)
Format: biochemical
Setup Conditions: Der p 1 IC50

# Compound, IC50
rows = [
    ("CC(C)[C@H](NC(=O)[C@H](C)NC(=O)[C@@H](NC(=O)c1ccccc1)C(C)(C)C)C(=O)C(=O)NC1CN2CCC1CC2 (stereo partly drawn)", "< 0.2 µM"),
    ("CC(C)[C@H](NC(=O)[C@H](C)NC(=O)[C@H](Cc1ccccc1)NC(=O)c1ccccc1)C(=O)C(=O)NCC(=O)N1CCCCC1", "< 0.02 µM"),
    ("CC(C)[C@H](NC(=O)[C@H](C)NC(=O)[C@H](Cc1ccccc1)NC(=O)c1ccccc1)C(=O)C(=O)N[C@@H](C)C(=O)N1CCN(C)CC1", "< 0.02 µM"),
]

---

Listing: IC50 of selected molecules
Experimental Target: Der p 1 (Dermatophagoides pteronyssinus (European house dust mite), UniProt P08176)
Procedure Summary: Der p 1 enzyme activity assay (FRET fluorogenic substrate)
Assay type: biochemical
Setup Conditions: threshold stated in text; read-out: Der p 1 IC50

# Molecule, Experimental Target, IC50
rows = [
    ("CC(C)[C@H](NC(=O)[C@H](C)NC(=O)[C@@H](NC(=O)c1ccccc1)C(C)(C)C)C(=O)C(=O)NCc1ccc(CN2CCCCC2)cc1 [PVA-165]", "Der p 1 (Dermatophagoides pteronyssinus (European house dust mite), UniProt P08176)", "< 200 nM"),
    ("CC(C)[C@H](NC(=O)[C@H](C)NC(=O)[C@@H](NC(=O)c1cccc(C(=O)O)c1)C(C)(C)C)C(=O)C(=O)NCC(=O)N1CCN(C)CC1 [PVA-130]", "Der p 1 (Dermatophagoides pteronyssinus (European house dust mite), UniProt P08176)", "< 20 nM"),
    ("CC(C)C[C@H](NC(=O)[C@H](C)NC(=O)[C@H](Cc1ccccc1)NC(=O)c1ccccc1)C(=O)C(=O)NC(C)C [PVA-004]", "Der p 1 (Dermatophagoides pteronyssinus (European house dust mite), UniProt P08176)", "< 200 nM"),
    ("CC(C)[C@H](NC(=O)[C@H](C)NC(=O)[C@@H]1Cc2ccccc2CN1C(=O)c1ccccc1)C(=O)C(=O)NC1CCCCC1 [PVA-100]", "Der p 1 (Dermatophagoides pteronyssinus (European house dust mite), UniProt P08176)", "< 200 nM"),
    ("CC(C)[C@H](NC(=O)[C@H](C)NC(=O)C1CCCN1C(=O)c1ccccc1)C(=O)C(=O)NCC(=O)N1CCN(C)CC1 (stereo partly drawn) [PVA-140]", "Der p 1 (Dermatophagoides pteronyssinus (European house dust mite), UniProt P08176)", "< 2000 nM"),
    ("CC(=O)Nc1cc(C(=O)N[C@@H](Cc2ccccc2)C(=O)N[C@@H](C)C(=O)N[C@H](C(=O)C(=O)NCc2ccccc2)C(C)C)ccn1 [PVA-060]", "Der p 1 (Dermatophagoides pteronyssinus (European house dust mite), UniProt P08176)", "< 200 nM"),
    ("CC(C)[C@H](NC(=O)[C@H](C)NC(=O)[C@H](Cc1ccccc1)NC(=O)c1ccccc1)C(=O)C(=O)NCc1cccc(C(=O)O)c1 [PVA-081]", "Der p 1 (Dermatophagoides pteronyssinus (European house dust mite), UniProt P08176)", "< 200 nM"),
    ("CC(C)[C@H](NC(=O)[C@H](C)NC(=O)[C@@H](Cc1cccc2ccccc12)NC(=O)c1ccccc1)C(=O)C(=O)NCc1ccccc1 [PVA-034]", "Der p 1 (Dermatophagoides pteronyssinus (European house dust mite), UniProt P08176)", "< 2000 nM"),
    ("CC(C)[C@H](NC(=O)[C@H](C)NC(=O)[C@@H](NC(=O)c1ccccc1)C(C)(C)C)C(=O)C(=O)NCC(=O)N1CCc2ccccc21 [PVA-112]", "Der p 1 (Dermatophagoides pteronyssinus (European house dust mite), UniProt P08176)", "< 20 nM"),
    ("CC(C)[C@H](NC(=O)[C@H](C)NC(=O)[C@H](Cc1ccccc1)NC(=O)c1ccnc(N2CCOCC2)c1)C(=O)C(=O)NC1CCCCC1 [PVA-069]", "Der p 1 (Dermatophagoides pteronyssinus (European house dust mite), UniProt P08176)", "< 2000 nM"),
    ("Cc1cc(CNC(=O)C(=O)[C@@H](NC(=O)[C@H](C)NC(=O)[C@@H](NC(=O)c2ccccc2)C(C)(C)C)C(C)C)n(C)n1 [PVA-168]", "Der p 1 (Dermatophagoides pteronyssinus (European house dust mite), UniProt P08176)", "< 200 nM"),
    ("CC(C)[C@H](NC(=O)[C@H](C)NC(=O)[C@H](Cc1ccccc1)NC(=O)c1ccc2ncsc2c1)C(=O)C(=O)NC1CCCCC1 [PVA-050]", "Der p 1 (Dermatophagoides pteronyssinus (European house dust mite), UniProt P08176)", "< 200 nM"),
]

---

Experimental Target: UniProt:P08176
Procedure Summary: Der p 1 enzyme activity assay (FRET fluorogenic substrate)
Format: biochemical
Setup Conditions: threshold stated in text; read-out: Der p 1 IC50
pIC50: −log10 of the molar value.

# Structure Smiles, pIC50
rows = [
    ("CCCC[C@H](NC(=O)[C@H](C)NC(=O)[C@@H](NC(=O)c1ccncc1)C(C)(C)C)C(=O)C(=O)NC1CCCCC1", "> 7.70"),
    ("CC(C)[C@H](NC(=O)[C@H](C)NC(=O)[C@H](Cc1ccccc1)NC(=O)c1ccccc1)C(=O)C(=O)NCC(=O)N1CCC(N(C)C)CC1", "> 7.70"),
    ("CC(C)[C@H](NC(=O)[C@H](C)NC(=O)[C@@H](NC(=O)c1ccnc2ccccc12)C(C)(C)C)C(=O)C(=O)NC1CCCCC1", "> 7.70"),
    ("CC(=O)Nc1ccc(C(=O)N[C@H](C(=O)N[C@@H](C)C(=O)N[C@H](C(=O)C(=O)NC2CCCCC2)C(C)C)C(C)(C)C)cn1", "> 6.70"),
    ("CC(C)[C@H](NC(=O)[C@H](C)NC(=O)[C@@H](NC(=O)c1ccc(OCCN2CCCC2)cc1)C(C)(C)C)C(=O)C(=O)NC1CCCCC1", "> 6.70"),
    ("CC(C)[C@H](NC(=O)[C@H](C)NC(=O)[C@@H](NC(=O)c1ccc2ncsc2c1)C(C)(C)C)C(=O)C(=O)NCc1ccccc1", "> 6.70"),
    ("CC(C)[C@H](NC(=O)[C@H](C)NC(=O)[C@H](Cc1ccccc1)NC(=O)c1ccccc1)C(=O)C(=O)NC1Cc2ccccc2C1", "> 6.70"),
    ("COC(=O)c1cccc(CNC(=O)C(=O)[C@@H](NC(=O)[C@H](C)NC(=O)[C@H](Cc2ccccc2)NC(=O)c2ccccc2)C(C)C)c1", "> 7.70"),
]

---

Listing: IC50 of selected compounds
Experimental Target: Der p 1 (Dermatophagoides pteronyssinus (European house dust mite))
Procedure Summary: Der p 1 enzyme activity assay (FRET fluorogenic substrate)
Assay type: biochemical
Setup Conditions: threshold stated in text; read-out: Der p 1 IC50
Observable: IC50

# Structure Smiles, Recorded Result
records = [
    ("CC(C)[C@H](NC(=O)[C@H](C)NC(=O)[C@@H](Cc1ccc(F)cc1)NC(=O)c1ccccc1)C(=O)C(=O)NC1CCCCC1", "< 200 nM"),
    ("CC(C)[C@H](NC(=O)[C@H](C)NC(=O)[C@@H](NC(=O)c1ccc(N2CCOCC2)nc1)C(C)(C)C)C(=O)C(=O)NC1CCCCC1", "< 200 nM"),
    ("CC(C)[C@H](NC(=O)[C@H](C)NC(=O)[C@@H](NC(=O)c1ccccc1)C(C)(C)C)C(=O)C(=O)NCc1cn[nH]c1", "< 20 nM"),
    ("CC(C)[C@H](NC(=O)[C@H](C)NC(=O)[C@H](Cc1ccccc1)NC(=O)c1ccncc1)C(=O)C(=O)NCc1ccc(S(N)(=O)=O)cc1", "< 20 nM"),
    ("CC(C)[C@H](NC(=O)[C@H](C)NC(=O)[C@@H](NC(=O)c1cccc2ccccc12)C(C)(C)C)C(=O)C(=O)NCc1ccc(S(N)(=O)=O)cc1", "< 20 nM"),
    ("CC(C)[C@H](NC(=O)[C@H](C)NC(=O)[C@@H](NC(=O)c1ccnc2ccccc12)C(C)(C)C)C(=O)C(=O)NCc1ccc(S(N)(=O)=O)cc1", "< 20 nM"),
    ("CC(C)[C@H](NC(=O)[C@H](C)NC(=O)[C@@H](NC(=O)c1ccccc1Oc1ccccc1)C(C)(C)C)C(=O)C(=O)NCc1ccccc1", "< 200 nM"),
    ("CC(C)[C@H](NC(=O)[C@H](C)NC(=O)[C@@H](Cc1ccc2ccccc2c1)NC(=O)c1ccccc1)C(=O)C(=O)NCc1ccccc1", "< 200 nM"),
    ("CC(C)[C@H](NC(=O)[C@H](C)NC(=O)[C@@H](NC(=O)c1ccccc1)C(C)(C)C)C(=O)C(=O)NCc1ccccc1Cl", "< 200 nM"),
]
